# measurement.protocol: Solubility check of 20 wt % solutions in organic solvents
# Assay type: physicochemical
# Design: key: A: the compound dissolves at room temperature; B: the compound does not dissolve at room temperature but dissolves when heated to 60° C.; the compound does not dissolve even when heated to 60° C
# experimental.parameters: 20 wt % solution in toluene; room temperature or heated to 60° C.
measurement.type: Results of Solubility Toluene

• C=CC(=O)OCCOCCOc1ccc(OC(=O)C2CCC(C(=O)Oc3ccc(OC(=O)C4CCC(C(=O)Oc5ccc(OCCOCCOC(=O)C=C)cc5)CC4)c4sc(-c5cc6c(C)cc(C)cc6o5)nc34)CC2)cc1 (centres unmarked) = B
• C=C(C)C(=O)OCCCCCCOc1ccc(OC(=O)C2CCC(COc3ccc(OCC4CCC(C(=O)Oc5ccc(OCCCCCCOC(=O)C(=C)C)cc5)CC4)c(/C=N/N(CCOCCOC)c4nc5ccccc5s4)c3)CC2)cc1 (centres unmarked) = A
• C=CC(=O)OCCCCCCOc1ccc(OC(=O)C2CCC(C(=O)Oc3ccc(OC(=O)C4CCC(C(=O)Oc5ccc(OCCCCCCOC(=O)C=C)cc5)CC4)c4sc(-c5ccc([N+](=O)[O-])cc5)nc34)CC2)cc1 (centres unmarked) [Compound R-2, reference compound] = B
• C=CC(=O)OCCCCOC(=O)C1CCC(C(=O)OC2CCC(C(=O)Oc3ccc(OC(=O)C4CCC(OC(=O)C5CCC(C(=O)OCCCCOC(=O)C=C)CC5)CC4)c4c3SC(=C(C#N)C(=O)OCCOCCOC(=O)C=C)S4)CC2)CC1 (centres unmarked) = B
• C=CC(=O)OCCCCCCOc1ccc(OC(=O)C2CCC(COc3ccc(-c4ccc(CCC)cc4)c(/C=N/N(CCOCCOC)c4nc5ccccc5s4)c3)CC2)cc1 (centres unmarked) = A
• C=CC(=O)OCCOCCOCCOc1ccc(C(=O)Oc2ccc(-c3ccc(CCC)cc3)cc2/C=N/Nc2nc3ccccc3s2)cc1 = A
• C=CC(=O)OCCCOc1ccc(OC(=O)C2CCC(COc3ccc(OCC4CCC(C(=O)Oc5ccc(OCCCOC(=O)C=C)cc5)CC4)c(/C=N/N(CCOCCOC)c4nc5ccccc5s4)c3)CC2)cc1 (centres unmarked) = A
• C=CC(=O)OCCOCCOC(=O)C1CCC(C(=O)OC2CCC(C(=O)Oc3ccc(OC(=O)C4CCC(OC(=O)C5CCC(C(=O)OCCOCCOC(=O)C=C)CC5)CC4)c4c3SC(=C3C(=O)N(c5ccccc5)N=C3C(=O)OCC)S4)CC2)CC1 (centres unmarked) = B
• C=CC(=O)OCCOCCOCCOc1ccc(OC(=O)C2CCC(COc3ccc(OCC4CCC(C(=O)Oc5ccc(OCCOCCOCCOC(=O)C=C)cc5)CC4)c(/C=N/N(CCCCCC)c4nc5ccccc5s4)c3)CC2)cc1 (centres unmarked) = A
• C=CC(=O)OCCOCCOCCOc1ccc(OC(=O)C2CCC(C(=O)Oc3ccc(C4CCC(CCC)CC4)cc3/C=N/Nc3nc4ccccc4s3)CC2)cc1 (centres unmarked) = A
• C=CC(=O)OCCOCCOCCOc1ccc(OC(=O)C2CCC(C(=O)Oc3ccc(C4CCC(C5CCC(CCC)CC5)CC4)cc3/C=N/N(CCCCCC)c3nc4ccccc4s3)CC2)cc1 (centres unmarked) = B
